The measured values listed here are drawn from a collection of fitness landscapes (doi:10.1126/science.1257360).

B1: PhoQ; a variant is named by its letters at X, in order, P23837 (parent)
chain: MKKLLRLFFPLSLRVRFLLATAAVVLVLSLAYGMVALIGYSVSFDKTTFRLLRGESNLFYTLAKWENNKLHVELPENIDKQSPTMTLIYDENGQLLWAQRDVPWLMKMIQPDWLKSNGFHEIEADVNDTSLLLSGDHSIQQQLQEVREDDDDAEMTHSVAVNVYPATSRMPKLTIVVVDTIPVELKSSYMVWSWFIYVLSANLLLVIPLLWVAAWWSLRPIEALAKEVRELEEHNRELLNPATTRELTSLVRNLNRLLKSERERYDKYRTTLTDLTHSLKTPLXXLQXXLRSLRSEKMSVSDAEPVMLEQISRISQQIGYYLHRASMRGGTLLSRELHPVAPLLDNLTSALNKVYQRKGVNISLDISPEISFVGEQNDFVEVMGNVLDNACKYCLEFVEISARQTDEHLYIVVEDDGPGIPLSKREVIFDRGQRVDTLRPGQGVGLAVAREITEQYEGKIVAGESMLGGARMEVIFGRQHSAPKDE

# Variants of: B1
# Assay text: enrichment ratio after two sorts for PhoP signalling (ratio (wild type AVST 3.29)); higher = more functional
# Details: with PhoP (E. coli)
Whole data set: some 140,000 sequences, median “enrichment ratio after two sorts for PhoP signalling” near 0, cut for the highest 2% near 11. The full list was thinned out, with the highest values kept by preference.
Reported enrichment ratio by item:

Check out these entries, answers already filled in.
QTPA    ≤ 0.25
QVWL    1.05

Entry `RPYE` ; enrichment ratio = ≤ 0.25

Entry `VYIW` ; enrichment ratio = ≤ 0.25

Entry `GYTL` ; enrichment ratio = ≤ 0.25

Entry `MQGM` ; enrichment ratio = ≤ 0.25

Entry `STLI` ; enrichment ratio = 12.4

Entry `QPLI` ; enrichment ratio = ≤ 0.25

Entry `QRWN` ; enrichment ratio = ≤ 0.25

Entry `QEYN` ; enrichment ratio = ≤ 0.25
